Test system: PC-3 prostate
MEASUREMENT DESCRIPTION: NCI-60 one-dose screen, 48 h (100 = growth as untreated, 0 = no growth, -100 = all killed)
MEASUREMENT CONTEXT: 10 µM unless noted
Compounds without any hit were thinned out: in the full panel of roughly 83,000, 20% have a hit.
Classify by measured growth: condition met if it is equal to or exceeds 50%, condition not met if it is smaller.

## Input Given the entry O=C(c1ccc(Cl)cc1)C1[C@H](c2ccccc2Cl)[C@@H](c2ccccc2)NC12C(=O)Nc1ccc(Br)cc12 (some centres undefined) , answer whether its growth meets or surpasses 50%.
## Output condition not met

## Input Reported growth at or above 50%? `Cn1cc(-c2cc(N)n3nc(-c4c[nH]c5ccc(Cl)cc45)cc3n2)c2cccnc21`
## Output condition not met

## Input Given the entry `CCCCCCCCc1ccc(C(=O)Nc2cccc(O)c2)cc1` , answer whether its growth meets or surpasses 50%.
## Output condition met

## Input # check: growth of `COc1ccc(N=Nc2c(N)nn3c(N)c(C#N)c(-c4ccccc4)nc23)cc1` is greater than or equal to 50%
## Output condition not met

## Input Threshold query (growth >= 50%) on `COC(=O)c1c(C(=O)OC)c2c3ccccc3c3ccccc3n2c1C(=O)C(C)(C)C`
## Output condition not met

## Input Assess whether reported growth for `COc1ccc(NC(=O)Nc2nc3ccc([N+](=O)[O-])cc3s2)cc1` sits at 50% or higher.
## Output condition not met

## Input Given `Clc1ccc(-c2nc3c4c(-c5ccccc5)c(-c5ccccc5)n(Cc5ccccc5)c4ncn3n2)cc1` , state whether its growth is at least 50%.
## Output condition not met

## Input Evaluate `Cc1cn(-c2cc(NC(=O)c3ccc(C)c(-n4cc(-c5cnc6cccnn56)nn4)c3)cc(C(F)(F)F)c2)cn1` : growth at minimum 50%?
## Output condition met

## Input Threshold query (growth >= 50%) on `O=C1c2cccc3c(N4CCN(Cc5ccccc5)CC4)ccc(c23)C(=O)N1c1cccc(-c2nn(-c3ccccc3)cc2-c2nc3ccccc3s2)c1`
## Output condition met

## Input State whether the measured growth reaches 50%, counting equality as reaching it, for `COc1nc(N)ncc1-c1ccc2ncnc(N3CCc4cc(F)c(Cl)cc43)c2c1`
## Output condition met

## Input Kindly determine if growth recorded for CCN1C(=O)N(CC)C2NNC(Sc3c(C(=O)O)c4ccccc4n(CC(C)C)c3=O)=NC21 (centres undefined) is above or exactly 50%.
## Output condition not met

## Input Form field: growth at least 50%? Entry: `COc1ccccc1NC(=O)c1ccc(NC(=O)CCl)s1`
## Output condition not met

## Input Does growth meet or surpass 50% for `COc1ccccc1NC(=O)N/N=C/c1c[nH]c2ccccc12` ?
## Output condition not met

## Input // inclusive: growth at least 50%? input: `CCCCNc1ccc2c3c(cccc13)C(=O)N(c1cccc(-c3nn(-c4ccccc4)cc3-c3nc4ccccc4s3)c1)C2=O`
## Output condition met

## Input Would you say `Cc1cc(N=C(N)c2ccccc2)ccc1OCCCCCCCCn1ccnc1` shows growth at minimum 50%?
## Output condition not met

## Input Hi team, for `CCCSc1nnc(-c2c(C)nc3sccn23)o1` , is the recorded growth at or above 50%?
## Output condition met

## Input Form field: growth at least 50%? Entry: `Cc1ccc(-c2cc(C(=O)N=Nc3c(O)[nH]c4ccc(F)cc34)c3ccccc3n2)cc1`
## Output condition met

## Input Reported growth reaches at least 50% for COc1cc(C2CC(c3ccc(S(=O)(=O)NCCNc4nc(N(C)C)nc(N5CCOCC5)n4)cc3)=Nc3c(N)nc(N)nc3N2)cc(OC)c1OC (centres undefined) ?
## Output condition met

## Input Test whether the compound `CN(C)CCCc1ccc(Nc2cnn(C)c(=O)c2Cl)cc1` records growth of 50% or higher.
## Output condition met

----------
Tested on: CCRF-CEM leukemia
MEASUREMENT DESCRIPTION: NCI-60 one-dose screen, 48 h
MEASUREMENT CONTEXT: 1 µM
About 83,000 compounds went through this panel and 20% of them were active in at least one assay; those are over-represented in the sample as a whole. The source made the active and inactive calls. Rule for the calls: active = growth percent below 10; inactive = the rest.
Reply using exactly one outcome from active, inactive

## Input What did this assay record as the result for `CC/C(=C(\c1ccc(O)cc1)c1ccc(OCCNC)cc1)c1ccccc1` ?
## Output inactive

## Input Please indicate how the test categorized `CC/C(=C(\c1ccc(O)cc1)c1ccc(OCCN(C)C(=O)CCOCCNC(=O)c2ccc3c(c2)CN([C@@H]2CCC(=O)NC2=O)C3=O)cc1)c1ccccc1` .
## Output inactive

## Input In this assay, the call recorded for `CC/C(=C(/c1ccc(O)cc1)c1ccc(OCCN(C)C(=O)COCCOCCNC(=O)Cc2ccc3c(c2)CN([C@@H]2CCC(=O)NC2=O)C3=O)cc1)c1ccccc1` was what?
## Output active

## Input Would you mind telling me which call this test gave `CC/C(=C(\c1ccc(O)cc1)c1ccc(OCCN(C)C(=O)COCCNC(=O)Cc2ccc3c(c2)CN([C@@H]2CCC(=O)NC2=O)C3=O)cc1)c1ccccc1` ?
## Output active

----------
System: CCRF-CEM leukemia
MEASUREMENT DESCRIPTION: NCI-60 one-dose screen, 48 h
MEASUREMENT CONTEXT: 10 µM unless noted
The panel holds about 83,000 compounds, 20% with a hit somewhere; the sample as a whole holds those more often. Active and inactive are the calls of the source. How the source made its calls: active means growth percent below 10; inactive means the rest.
The reply should be one of these categories: active, inactive

## Input # fetch the recorded call for `Cn1cc(Nc2ncnc(-c3ccc(N4CCCC4)c(C#N)c3)n2)cn1` here
## Output inactive

## Input I'd appreciate the recorded outcome for `COc1ccc(NC(=O)Nc2nc3ccc([N+](=O)[O-])cc3s2)cc1` from this test.
## Output inactive

## Input Check the results log: what was the call for COc1c(F)ccc(C(=O)Nc2ccc3nc(NC(=O)C4CCCN(S(=O)(=O)c5ccc(C(C)(C)C)cc5)C4)sc3c2)c1F (centres undefined) ?
## Output inactive

## Input // param item: `CN(C)C(=O)c1cc(-c2ccc3ncnc(N4CCc5cc(F)c(Cl)cc54)c3c2)cnc1N` ; yields the recorded call
## Output active

----------
Tested on: UACC-257 melanoma
MEASUREMENT DESCRIPTION: NCI-60 one-dose screen, 48 h (100 = growth as untreated, 0 = no growth, -100 = all killed)
MEASUREMENT CONTEXT: 10 µM unless noted
Compounds without any hit were thinned out: in the full panel of roughly 83,000, 20% have a hit.
ASSAY READOUT: growth (%)
Answer in %, number only, no unit symbol.

## Input Item O=C(c1ccc(O)cc1)C1[C@H](c2ccccc2Br)[C@@H](c2ccccc2)NC12C(=O)Nc1ccccc12 (some centres undefined) has what recorded growth?
## Output 45.8

## Input Any idea what growth was measured for `Cc1ccc2nc(NC(=O)Nc3cccc(Cl)c3)sc2c1` ?
## Output 111

## Input What value of growth has been recorded for this entry: `CCC(=O)c1cc(C(=O)OC)c2ccc3c4ccccc4ccc3n12`
## Output 99.7

## Input What measured growth goes with `N#Cc1c(-c2ccc(F)cc2)nc(SCc2ccc(F)cc2)nc1N1CCNCC1` ?
## Output -90.7

## Input Any idea what growth was measured for `O=C(Nc1ccc(Cl)c(C(F)(F)F)c1)N1CCN(c2cc(-c3cn(-c4ccccc4)nc3-c3cccc(O)c3)ccn2)CC1` ?
## Output -16.6

## Input // lookup growth for `COc1ccc2[nH]c(O)c(N=Nc3nc(-c4ccccc4)cs3)c2c1`
## Output 59.3

## Input Param item = CCOc1ccccc1[C@H]1C(C(=O)c2ccc(Cl)cc2)C2(N[C@@H]1c1ccccc1)C(=O)Nc1ccc(Br)cc12 (some centres undefined) ; retrieve measured growth.
## Output 44

## Input Report growth for `COC(=O)c1c(C(=O)OC)c2ccc3c4ccccc4ccc3n2c1C(=O)OC` please.
## Output 101

## Input What value of growth has been reported for the following compound? `O=C1Nc2ccccc2/C1=C/C(=O)c1cc2ccccc2oc1=O`
## Output 104

----------
Test system: SK-OV-3 ovarian
MEASUREMENT DESCRIPTION: NCI-60 one-dose screen, 48 h (100 = growth as untreated, 0 = no growth, -100 = all killed)
MEASUREMENT CONTEXT: 10 µM unless noted
This is part of a sample that, as a whole, favours compounds with a hit. Of some 83,000 tested, about 20% had one in any assay. The source made the active and inactive calls. The calls were made as follows: active = growth percent below 10; inactive = the rest.
ASSAY READOUT: growth

## Input Can you share its growth? I mean this compound: `CCCCCCCCCc1ccc(C(=O)Nc2cc(C)ccc2C(=O)OC)cc1`
## Output 107% (inactive)

## Input Request the reported growth associated with `O=C(Cc1c(-c2ccccc2[N+](=O)[O-])n(-c2ncnc3c2c(-c2ccccc2)c(-c2ccccc2)n3Cc2ccccc2)[nH]c1=O)c1ccc(Cl)c(Cl)c1`
## Output 39.3% (inactive)

## Input What does the data say about its growth? Entry: `O=C(CSc1nc2sc3c(c2c(=O)n1-c1ccc(Cl)cc1)CCCC3)N/N=C/C=C/c1ccccc1`
## Output -11.2% (active)

## Input Look up growth: `CC[C@]12C=CCN3CC[C@]4(C(=C(C(=O)OC)C1)Nc1cc(OC)c([C@@H]5[C@H]6O[C@H]6[C@@]6(CC)CC(C(=O)OC)=C7Nc8cc(OC)ccc8[C@@]78CCN5[C@@H]68)cc14)[C@@H]32`
## Output 116% (inactive)

## Input Consider the compound `COc1cc(/C=C/C(=O)c2cnn(-c3cc(=O)[nH]c4ccc(Br)cc34)c2C)cc(OC)c1OC` and give its measured growth.
## Output 19.5% (inactive)

## Input Entry `COc1ccc2c(c1)N=c1c-2cc2c(O)[nH]c(=S)n2c1=O` has what growth?
## Output 53.3% (inactive)

## Input Give its growth value. Item: COc1ccc2c(c1)C(Sc1ccc(F)cc1)c1c(nc(N)c(C#N)c1N)O2 (stereo not drawn)
## Output 122% (inactive)

## Input Which measured growth value corresponds to `COc1cc(CNC(=O)C[C@H](C)CCC=C(C)C)ccc1OCc1cn(-c2ccc(Br)cc2)nn1` ?
## Output 64% (inactive)
